B1: CPEB3 Ribozyme (parent)
chain: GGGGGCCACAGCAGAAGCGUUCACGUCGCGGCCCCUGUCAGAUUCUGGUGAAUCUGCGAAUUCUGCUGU

Variants of: B1
Experiment: self-cleavage, relative activity (ratio to wild type); higher = more cleavage; co-transcriptional
ASSAY READOUT: self-cleavage

CHANGES: C24A C34U
ASSAY READOUT: self-cleavage
MEASUREMENT: 0.803
--
CHANGES: C34A G50A
ASSAY READOUT: self-cleavage
MEASUREMENT: 0.822
--
CHANGES: A42C U64C
ASSAY READOUT: self-cleavage
MEASUREMENT: 0.637
--
CHANGES: C57A U69C
ASSAY READOUT: self-cleavage
MEASUREMENT: 0.499
--
CHANGES: C9U G14U
ASSAY READOUT: self-cleavage
MEASUREMENT: 0.898
--
CHANGES: G5U U26C
ASSAY READOUT: self-cleavage
MEASUREMENT: 0.155
